Tested on: TYK2(JH1domain-catalytic);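 also: KINOMEscan kinase panel screen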
condition-context: concentration: 1 μM, replicates: in singlicate; n = 1
I'd be grateful if you could share measured %Inh for these entries.
One number for each entry, in %.

Known results for molecules:
1) Fc1ccc(-c2ncn(CCCN3CCOCC3)c2-c2ccccn2)cc1 : 0
2) NCC(NC(=O)c1cc(-c2cn[nH]c2)c(-c2ccnc3[nH]ccc23)s1)c1ccccc1.O=C(O)C(F)(F)F.O=C(O)C(F)(F)F (stereo not shown) : 49
3) NS(=O)(=O)CCc1cccc(Nc2nccc(-c3c(-c4cccc(NC(=O)c5c(F)cccc5F)c4)nn4ccccc34)n2)c1 : 98.7
4) Nc1nccc(-c2c(-c3ccc(F)cc3)ncn2C2CCN(CC(F)(F)F)CC2)n1 : 14
5) Cn1cc(-c2ccc3c(c2)CCN3C(=O)Cc2ccccc2Cl)c2c(N)ncnc21 : 33
6) COc1cc2ncn(-c3cc(OCc4sccc4Cl)c(C(N)=O)s3)c2cc1OC : 22
7) Cc1ccc(NC(=O)c2ccnc(N3CCN(C)CC3)c2)cc1-c1ccc(C(=O)NCC2CC2)cc1 : 100
8) Cc1c2ccc(N(C)c3ccnc(Nc4cccc(S(N)(=O)=O)c4)n3)cc2nn1Cc1ccccc1.Cl.Cl : 16

I have 5 molecules here; please give me %Inh for each one.
1. Cc1nnc(-c2ccc3occ(-c4ccc(C(C)O)cc4)c3c2)o1 (stereo not shown)
2. COc1ccc(Nc2nccc(N3CCC(NC(=O)Nc4cccc(C(C)=O)c4)C3)n2)cc1 (stereo not shown)
3. O=C(c1ccc(-c2cc(-c3c[nH]nc3-c3ccccn3)ccn2)cc1)N1CCOCC1
4. O=C(NCCCN1CCOCC1)c1cccc(Nc2nccc(Nc3ccc(Oc4ccccc4)cc3)n2)c1
5. COc1cc2c(cc1OC[C@@H](O)CO)ncc1c3ccc(C#N)cc3[nH]c21

0
35
0
30
0

I have 5 molecules here; please give me %Inh for each one.
1. COc1cc2c(cc1OCCN1CCN(C)CC1)ncc1c3ccc(C#N)cc3[nH]c21
2. CCn1cnc2c(N)ncnc21
3. O=C(NCCNc1ccnc(Nc2ccc(F)cc2)n1)c1cc2ccccc2s1
4. CN(C1=C(c2ccccc2)C(=O)NC1=O)c1ccccc1
5. COCCNC(=O)c1ccc(-c2cc(C(=O)NC3CC3)cc(F)c2C)cc1

1. 0
2. 23
3. 0
4. 0
5. 9

I have 5 molecules here; please give me %Inh for each one.
1. Nc1nc(-c2ccc3c(N)n[nH]c3c2)cc(N2CCCC2)n1
2. N#Cc1c(N2CCOCC2)sc(-c2ccn[nH]2)c1-c1ccc(Cl)cc1
3. Cc1cccc(-c2nc(Nc3ccc4ncsc4c3)c3ccccc3n2)n1
4. O=C(NOCC1CC1)c1ccc(F)c(F)c1Nc1ccc(I)cc1Cl
5. c1ccc(-c2cc(-c3c[nH]nc3-c3ccccn3)ccn2)cc1

0
14
0
0
13

I have 2 molecules here; please give me %Inh for each one.
1. CN(C(=O)c1ccc(-c2cc(-c3c[nH]nc3-c3ccccn3)ccn2)cc1)C1CCOCC1
2. O=C1Cc2cc(Nc3nc(NCc4cccc(S(=O)(=O)C(F)(F)F)c4)ncc3C(F)(F)F)ccc2N1

12
25
